sample_smiles	melting point
CC(C)(C)c1nc2cc(S(=O)(=O)CCCC(F)(F)F)ccc2n1CC1CCN(C(=O)C(F)(F)F)CC1.Cl	> 100 °C
CCS(=O)(=O)c1ccc2c(c1)nc(CC(C)(C)C)n2CC1CCN(C=O)CC1	166 to 168 °C
CC(=O)N1CCC(Cn2c(C(C)(C)C)nc3cc(S(=O)(=O)Cc4ccc(F)cc4)ccc32)CC1	> 100 °C

---

Biological target: human CB2 (hCB2) receptor (Homo sapiens, UniProt P34972)
Sequence (P34972 whole entry): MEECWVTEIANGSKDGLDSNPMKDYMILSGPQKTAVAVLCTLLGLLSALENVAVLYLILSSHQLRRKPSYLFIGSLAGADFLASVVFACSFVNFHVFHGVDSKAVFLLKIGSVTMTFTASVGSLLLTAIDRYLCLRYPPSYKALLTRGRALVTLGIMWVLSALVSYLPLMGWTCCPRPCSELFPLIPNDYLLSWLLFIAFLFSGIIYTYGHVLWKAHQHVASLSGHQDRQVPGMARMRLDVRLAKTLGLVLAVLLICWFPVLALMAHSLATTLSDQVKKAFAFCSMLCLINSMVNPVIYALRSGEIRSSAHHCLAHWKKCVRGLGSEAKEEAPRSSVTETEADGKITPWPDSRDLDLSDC
Assay: Inhibition of forskolin-activated cAMP production upon activation of human CB2 receptor (HTRF)
Details: CHO-K1 cells stably transfected with hCB2; 15 μM forskolin; pEC50=-log(EC50); relative to WIN55212-2
# key: entry, value: EC50
experimental_readout: EC50

sample_smiles	recorded_result
CC(=O)N1CCC(Cn2c(C(C)(C)C)nc3cc(S(=O)(=O)c4ccccc4C#N)ccc32)CC1	~3.31 nM
CC(=O)N1CCC(Cn2c(C(C)(C)C)nc3cc(S(=O)(=O)c4c(C)cccc4C)ccc32)CC1	~8.32 nM
CC(=O)N1CCC(Cn2c(C(C)(C)C)nc3cc(Sc4ccc(C#N)cc4)ccc32)CC1	6.31 nM
CC(C)(C)c1nc2cc(S(=O)(=O)CCCO)ccc2n1CC1CCN(C=O)CC1	8.91 nM
CCS(=O)(=O)c1ccc2c(c1)nc(C(C)(C)C)n2CC1CCN(C(C)=O)CC1	8.51 nM
CC(=O)N1CCC(Cn2c(C(C)(C)C)nc3cc(S(=O)(=O)c4c(F)cccc4F)ccc32)CC1	~16.6 nM
COCCSc1ccc2c(c1)nc(C(C)(C)C)n2CC1CCN(C=O)CC1	7.08 nM
CC(=O)Nc1ccc(CS(=O)(=O)c2ccc3c(c2)nc(C(C)(C)C)n3CC2CCN(C(C)=O)CC2)cc1	5.89 nM
CC(=O)N1CCC(Cn2c(C(C)(C)C)nc3cc(S(=O)(=O)c4nccs4)ccc32)CC1	5.89 nM

---

# key: entry, value: melting point
experimental_readout: melting point

sample_smiles	recorded_result
CCS(=O)(=O)c1ccc2c(c1)nc(C(C)(C)C)n2CC1CCS(=O)(=O)CC1	194 °C
COCC(=O)N1CCC(Cn2c(C(C)(C)C)nc3cc(S(=O)(=O)CCCC(F)(F)F)ccc32)CC1	> 100 °C
CC(C)(C)c1nc2cc(S(=O)(=O)CCCO)ccc2n1CC1CCN(C=O)CC1	> 100 °C

---

# key: entry, value: EC50
Target: human CB2 (hCB2) receptor (Homo sapiens, UniProt P34972)
Assay: Inhibition of forskolin-activated cAMP production upon activation of human CB2 receptor (HTRF)
Conditions: CHO-K1 cells stably transfected with hCB2; 15 μM forskolin; pEC50=-log(EC50); relative to WIN55212-2
Procedure: D. Pharmacological Examples D.1 Inhibition of cAMP in Response to Activation of the Human CB2 Receptors Functional activity of the test compounds was assessed by measuring their potency to inhibit forskolin-activated cAMP production upon activation of human CB2 (hCB2) receptor through homogenous time resolved fluorescence (HTRF) assays. […]

molecule	EC50
CC(=O)N1CCC(Cn2c(C(C)(C)C)nc3cc(S(=O)(=O)Cc4ccc(N(C)C(C)=O)cc4)ccc32)CC1 [compound 80]	~46.8 nM
CC(=O)N1CCC(Cn2c(C(C)(C)C)nc3cc(Sc4cccc(Cl)c4)ccc32)CC1 [compound 89]	~0.11 nM
CC(=O)N1CCC(Cn2c(C(C)(C)C)nc3cc(Sc4cccc(C(F)(F)F)c4)ccc32)CC1 [compound 91]	~0.832 nM
CC(=O)N1CCC(Cn2c(C(C)(C)C)nc3cc(Sc4ccccc4C#N)ccc32)CC1 [compound 93]	~0.24 nM
CC(=O)N1CCC(Cn2c(C(C)(C)C)nc3cc(S(=O)(=O)c4ccc(OC(F)(F)F)cc4)ccc32)CC1 [compound 104]	~23.4 nM
COc1ccc(S(=O)(=O)c2ccc3c(c2)nc(C(C)(C)C)n3CC2CCN(C(C)=O)CC2)c(OC)c1 [compound 106]	~22.9 nM
CC(=O)N1CCC(Cn2c(C(C)(C)C)nc3cc(S(=O)(=O)c4c(F)cc(F)cc4F)ccc32)CC1 [compound 114]	~4.17 nM
CC(=O)N1CCC(Cn2c(C(C)(C)C)nc3cc(S(=O)(=O)Cc4ccc([N+](=O)[O-])cc4)ccc32)CC1 [compound 69]	5.89 nM
CC(=O)N1CCC(Cn2c(C(C)(C)C)nc3cc(S(=O)(=O)c4ccccn4)ccc32)CC1 [compound 53]	2.95 nM
CC(=O)N1CCC(Cn2c(C(C)(C)C)nc3cc(Sc4cccc(OCCCC#N)c4)ccc32)CC1 [compound 95]	~2.69 nM
COc1cccc(OC)c1S(=O)(=O)c1ccc2c(c1)nc(C(C)(C)C)n2CC1CCN(C(C)=O)CC1 [compound 102]	~3.47 nM
CC(=O)N1CCC(Cn2c(C(C)(C)C)nc3cc(S(=O)(=O)c4ccccc4C(F)(F)F)ccc32)CC1 [compound 113]	~2.51 nM
